- Test system: HepG2 cells
- experiment description: HepG2 cytotoxicity assay
- condition details: unified HepG2 cytotoxicity across the three screens
Sorting guide: entries reporting Unified cytotox beneath 5 µM go in the 1 pile, the rest go in the 0 pile.

// known answers, use as guide
{"columns": ["molecule", "cat"],
 "data": [
  ["CC(C)Cn1cc(C2CCN(CCN3CCC(CNC(=O)c4ccc(-c5ccc(C(F)(F)F)cc5)cc4)CC3)CC2)c2ccccc21 [TCMDC-138852]", 1],
  ["Cc1cc(N)c2cc(NC(=O)/C=C/c3ccc([N+](=O)[O-])cc3)ccc2n1 [TCMDC-139335]", 0],
  ["c1ccc(C23N=C(Nc4nc5ccccc5[nH]4)NC2(c2ccccc2)NC(Nc2nc4ccccc4[nH]2)=N3)cc1 (stereo not shown) [TCMDC-139082]", 0],
  ["CCN(CC)CCN(Cc1ccc(-c2ccc(Cl)cc2)cc1)C(=O)Cn1cc(CN(C)C)c(=O)nc1SCc1ccc(F)cc1 [TCMDC-140406]", 0],
  ["CN1CCN(CCCNCc2ccccc2-c2cccc(CNCc3ccc4c(c3)OCO4)c2)CC1.O=C(O)C(F)(F)F [TCMDC-140476]", 1],
  ["O=C(NCCCCN1CCC(c2ccc3c(c2OCCN2CCCC2)CCCC3)CC1)c1ccc(-c2ccc(C(F)(F)F)cc2)cc1 [TCMDC-138768]", 0]
]}

Consider the record given below.
For CC(NCCc1cccc(Cl)c1)C(O)c1ccc(OCCCCCCOc2ccc(C(O)C(C)NCCc3cccc(Cl)c3)cc2)cc1 (stereo not shown) [TCMDC-139334] , is the recorded Unified cytotox below the cut-off of 5 µM?
1
